# Test Target: human A2a adenosine receptor (Homo sapiens (Human), UniProt P29274)
# Sequence (P29274 whole entry): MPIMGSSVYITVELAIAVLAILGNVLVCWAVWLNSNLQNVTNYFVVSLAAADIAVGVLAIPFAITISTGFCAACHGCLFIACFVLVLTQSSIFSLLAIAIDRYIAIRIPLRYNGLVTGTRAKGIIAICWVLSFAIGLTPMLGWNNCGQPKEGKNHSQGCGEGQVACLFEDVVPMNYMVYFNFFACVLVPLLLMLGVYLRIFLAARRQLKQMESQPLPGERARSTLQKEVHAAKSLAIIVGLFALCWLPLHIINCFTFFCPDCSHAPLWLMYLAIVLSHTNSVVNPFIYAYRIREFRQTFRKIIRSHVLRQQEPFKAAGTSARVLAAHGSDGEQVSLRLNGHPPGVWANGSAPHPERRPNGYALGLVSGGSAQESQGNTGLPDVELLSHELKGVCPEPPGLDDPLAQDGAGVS
# Experiment: A2a binding affinity using radioligand binding, Method (A)
# Assay Setup: Method (A): [3H]SCH58261 filtration binding
pIC50: −log10 of the molar value.
pIC50 class ranges: lower band: < 7; central band: ≥ 7 and < 8; upper band: ≥ 8

Request: Form field 'band' for `Cc1c(-c2cc(F)c(F)cc2F)nc(N)c2nc(Cc3ccccc3)nn12`
Result: central band

Request: Hey, which category is `Cc1c(-c2ncco2)nc(N)n2nc(Cc3ccc4c(c3)ncn4CC(F)F)nc12` in, do you know?
Result: central band

Request: GET /class?item= `Cc1c(-c2ncco2)nc(N)n2nc(CCN3CCc4c(ncn4C4CCCC4)C3)nc12`
Result: upper band

Request: Please report the category associated with `COc1c(F)cc(F)cc1-c1cc2nc(CCN3CCn4c(cnc4C(C)C)C3)nn2c(N)n1` , nothing else.
Result: lower band

Request: // bin(item) where item = `Nc1nc(-c2ccccc2)cn2nc(Cc3ccccc3)nc12`
Result: upper band

Request: Place this molecule in its band: `Cc1c(-c2ncco2)nc(N)n2nc(CN3CCc4cccnc43)nc12`
Result: upper band

Request: The entry to classify is `CCOC(=O)c1cnn(CCc2nc3c(C)c(-c4ncco4)nc(N)n3n2)c1` ; which class holds it?
Result: central band

Request: Bin? `Cc1c(-c2ncco2)nc(N)n2nc(CCN3CCc4nn(C5CC(F)(F)C5)cc4C3)nc12`
Result: upper band

Request: Classify this molecule: `Cc1c(-c2ncco2)nc(N)c2nc(Cc3ncccc3F)nn12`
Result: upper band

Request: For this molecule, which bin applies? `CC(C)c1ncc2n1CCN(CCc1nc3cc(-c4cc(F)ccc4O)nc(N)n3n1)C2`
Result: lower band

Request: # classify by pIC50 band: `Cc1c(-c2ccc(Cl)c(Cl)c2)nc(N)c2nc(Cc3ccccc3)nn12`
Result: central band

Request: Bin this entry: `Cc1c(-c2cc(F)ccc2F)nc(N)c2nc(Cc3ccccc3)nn12`
Result: upper band

Request: Which bin should I file `CC(C)c1ncc2n1CCN(CCc1nc3cc(-c4cc(F)cc(F)c4)nc(N)n3n1)C2` under?
Result: lower band

Request: Which bin should I file `Cc1c(-c2ccc(F)c(F)c2F)nc(N)c2nc(Cc3ccccc3)nn12` under?
Result: lower band

Request: Band of `COc1ccc(-c2nc(N)c3nc(Cc4ccccc4)nn3c2C)cc1F` ?
Result: central band

Request: Classify this molecule: `CC(C)c1ncc2n1CCN(CCc1nc3cc(-c4cccc(F)c4)nc(N)n3n1)C2`
Result: central band

Request: Assign a category based on measured pIC50 for `Cc1nc2c(N)nc(-c3ncco3)cn2n1` and give only the class name.
Result: lower band

Request: Lab note: which band did `Cc1c(-c2ncco2)nc(N)n2nc(CCN3CCc4c(nnn4C4CCCC4)C3)nc12` land in?
Result: upper band

Request: Sort into band: `Cc1c(-c2ncco2)nc(N)n2nc(CCN3CCn4c(cnc4C4CC(F)(F)C4)C3)nc12`
Result: upper band

Request: Input `COC1(c2ccc(Cc3nc4c(C)c(-c5ncco5)nc(N)n4n3)cc2)CCC1` ; output its category
Result: upper band

Request: Determine which band this molecule sits in: `COc1ccc(F)cc1-c1nc(N)c2nc(Cc3ccccc3)nn2c1C`
Result: lower band

Request: Band for the recorded pIC50 of `Cc1c(-c2ncco2)nc(N)n2nc(Cc3ccn(C)n3)nc12` ?
Result: upper band

Request: Place this molecule in its band: `Nc1nc(-c2ncco2)c(C2CC2)n2nc(Cc3ccccc3)nc12`
Result: upper band

Request: Which class does `Cc1c(-c2ncccn2)nc(N)c2nc(Cc3ccccc3)nn12` fall in?
Result: upper band
